Assay: Lipophilicity, logD of the compound by shake flask assay
Format: physicochemical
Conditions: octanol/water
If the reported logD equals or exceeds 1, assign true (1). If not, assign false (0).

Please check the record COc1ncc2ccc(=O)n(CCN[C@H]3CC[C@H]4[C@H](C3)OC(=O)N4c3ccc4c(n3)NC(=O)CO4)c2n1 and state if its logD is at or above 1.
true (1)

Please check the record N#Cc1ccc2c(ccc(=O)n2CCN[C@H]2CC[C@H]3[C@H](C2)OC(=O)N3c2ccc3c(n2)NC(=O)CO3)c1 and state if its logD is at or above 1.
true (1)

Please check the record N#Cc1cnc2ccc(=O)n(CCN[C@H]3CC[C@H]4[C@H](C3)OC(=O)N4c3ccc4c(n3)NC(=O)CS4)c2c1 and state if its logD is at or above 1.
true (1)

Please check the record O=c1ccc2ncc(=O)n3c2n1C[C@H]3CN1CCC(NCc2cc3c(cn2)OCCC3)CC1 and state if its logD is at or above 1.
false (0)

Please check the record N#Cc1cnc2ccc(=O)n(CCCN[C@H]3CC[C@H]4[C@H](C3)OC(=O)N4c3ccc4c(n3)NC(=O)CO4)c2c1 and state if its logD is at or above 1.
false (0)

Please check the record COc1ccc2ccc(=O)n(CCN[C@H]3CC[C@H]4[C@H](C3)OC(=O)N4c3ccc4c(n3)NC(=O)CO4)c2n1 and state if its logD is at or above 1.
true (1)

Please check the record COc1ccc2ccc(=O)n(CCCN[C@H]3CC[C@H]4[C@H](C3)OC(=O)N4c3ccc4c(n3)NC(=O)CO4)c2n1 and state if its logD is at or above 1.
true (1)

* * *

Test system: Staphylococcus aureus
Assay: Antibacterial activity against Staphylococcus aureus ATCC 29213 assessed as bacterial growth inhibition by CLSI protocol based assay
Type: functional
Recorded Endpoint: MIC

>  <Molecule>
COc1ccc2ccc(=O)n(CCN[C@H]3CC[C@H]4[C@H](C3)OC(=O)N4c3ccc4c(n3)NC(=O)CO4)c2n1

>  <Target Or System>
Staphylococcus aureus

>  <Recorded Endpoint>
MIC

>  <Endpoint Value>
0.008 µg/mL

$$$$
>  <Molecule>
COc1ccc2ccc(=O)n(CCN[C@H]3CC[C@H]4[C@@H](C3)OC(=O)N4c3ccc4c(n3)NC(=O)CO4)c2n1

>  <Target Or System>
Staphylococcus aureus

>  <Recorded Endpoint>
MIC

>  <Endpoint Value>
0.03 µg/mL

$$$$
>  <Molecule>
N#Cc1ccc2c(ccc(=O)n2CCN[C@H]2CC[C@H]3[C@H](C2)OC(=O)N3c2ccc3c(n2)NC(=O)CO3)c1

>  <Target Or System>
Staphylococcus aureus

>  <Recorded Endpoint>
MIC

>  <Endpoint Value>
4 µg/mL

$$$$
>  <Molecule>
O=c1ccc2ncc(=O)n3c2n1C[C@H]3CN1CCC(NCc2cc3c(cn2)OCCC3)CC1 [GEPOTIDACIN]

>  <Target Or System>
Staphylococcus aureus

>  <Recorded Endpoint>
MIC

>  <Endpoint Value>
0.5 µg/mL

$$$$
>  <Molecule>
N#Cc1cnc2ccc(=O)n(CCN[C@H]3CC[C@H]4[C@H](C3)OC(=O)N4c3ccc4c(n3)NC(=O)CS4)c2c1

>  <Target Or System>
Staphylococcus aureus

>  <Recorded Endpoint>
MIC

>  <Endpoint Value>
0.03 µg/mL

$$$$

For the 2 molecules below, give their MIC values.
1. COc1ccc2ccc(=O)n(CCN[C@@H]3CC[C@@H]4[C@@H](C3)OC(=O)N4c3ccc4c(n3)NC(=O)CO4)c2n1
2. O=C1COc2ccc(N3C(=O)O[C@H]4C[C@@H](NCCn5c(=O)ccc6ccc(C(=O)O)cc65)CC[C@@H]43)nc2N1

["0.03 µg/mL", "> 64 µg/mL"]

* * *

Experiment: Intrinsic clearance in mouse liver microsomes in presence of NADPH and measured upto 45 mins
Type: ADME, Microsome
Settings: read-out: CLH
microsomal CLint less than 60 µL/min/mg is met; microsomal CLint greater than or equal to 60 µL/min/mg is not met.

These recorded examples may help you get a feel for the data.
>  <Structure Notation>
N#Cc1cnc2ccc(=O)n(CCCN[C@H]3CC[C@H]4[C@H](C3)OC(=O)N4c3ccc4c(n3)NC(=O)CO4)c2c1

>  <Discrete Label>
met

$$$$
>  <Structure Notation>
N#Cc1ccc2ccc(=O)n(CCN[C@H]3CC[C@H]4[C@H](C3)OC(=O)N4c3ccc4c(n3)NC(=O)CO4)c2c1

>  <Discrete Label>
not met

$$$$
>  <Structure Notation>
COc1cnc2ccc(=O)n(CCCN[C@H]3CC[C@H]4[C@H](C3)OC(=O)N4c3ccc4c(n3)NC(=O)CO4)c2c1

>  <Discrete Label>
met

$$$$
>  <Structure Notation>
COc1ccc2ccc(=O)n(CCN[C@H]3CC[C@H]4[C@H](C3)OC(=O)N4c3ccc4c(n3)NC(=O)CO4)c2n1

>  <Discrete Label>
not met

$$$$
>  <Structure Notation>
COc1cnc2ccc(=O)n(CCN[C@H]3CC[C@H]4[C@H](C3)OC(=O)N4c3ccc4c(n3)NC(=O)CO4)c2c1

>  <Discrete Label>
not met

$$$$

Could you please tell me whether microsomal CLint recorded for COc1ccc2ccc(=O)n(CCN[C@H]3CC[C@H]4[C@H](C3)OC(=O)N4c3ccc4c(n3)NC(=O)CS4)c2n1 is less than 60 µL/min/mg?
not met

Could you please tell me whether microsomal CLint recorded for N#Cc1cnc2ccc(=O)n(CCN[C@H]3CC[C@H]4[C@H](C3)OC(=O)N4c3ccc4c(n3)NC(=O)CO4)c2c1 is less than 60 µL/min/mg?
met

* * *

System: Staphylococcus aureus
Experiment: Antibacterial activity against Staphylococcus aureus ATCC 29213 assessed as bacterial growth inhibition by CLSI protocol based assay
Assay type: functional
Consider the following compounds; for each one, report its MIC.
Give bare numbers, in µg/mL.

Sample records with MIC:
>  <Structure Notation>
O=C1COc2ccc(N3C(=O)O[C@H]4C[C@@H](NCCn5c(=O)cnc6ccc(F)cc65)CC[C@@H]43)nc2N1

>  <MIC (µg/mL)>
0.015

$$$$
>  <Structure Notation>
COc1cnc2ccc(=O)n(CCN[C@H]3CC[C@H]4[C@H](C3)OC(=O)N4c3ccc4c(n3)NC(=O)CO4)c2c1

>  <MIC (µg/mL)>
0.03

$$$$
>  <Structure Notation>
N#Cc1ccc2ccc(=O)n(CCCN[C@H]3CC[C@H]4[C@H](C3)OC(=O)N4c3ccc4c(n3)NC(=O)CO4)c2c1

>  <MIC (µg/mL)>
0.06

$$$$
>  <Structure Notation>
COc1ccc2ccc(=O)n(CCN[C@@H]3CC[C@@H]4[C@H](C3)OC(=O)N4c3ccc4c(n3)NC(=O)CO4)c2n1

>  <MIC (µg/mL)>
0.008

$$$$
>  <Structure Notation>
O=C1COc2ccc(N3C(=O)O[C@H]4C[C@@H](NCCCn5c(=O)cnc6ccc(F)cc65)CC[C@@H]43)nc2N1

>  <MIC (µg/mL)>
0.25

$$$$
>  <Structure Notation>
COc1cc2c(ccc(=O)n2CCN[C@H]2CC[C@H]3[C@H](C2)OC(=O)N3c2ccc3c(n2)NC(=O)CO3)cn1

>  <MIC (µg/mL)>
0.5

$$$$

Shift focus to the following entry.
According to the records, this compound COc1ccc2ccc(=O)n(CCN[C@H]3CC[C@H]4[C@H](C3)OC(=O)N4c3ccc4c(n3)NC(=O)C(C)(C)O4)c2n1 displays MIC of 0.03

* * *

Tested on: Escherichia coli
Test: Antibacterial activity against Escherichia coli ATCC25922 assessed as bacterial growth inhibition by CLSI protocol based assay
Type: functional
Recorded Endpoint: MIC (µg/mL)
Give bare numbers, in µg/mL.

Sample records with MIC:
>  <Structure Notation>
N#Cc1ccc2ccc(=O)n(CCN[C@H]3CC[C@H]4[C@H](C3)OC(=O)N4c3ccc4c(n3)NC(=O)CO4)c2c1

>  <Target Or System>
Escherichia coli

>  <MIC [µg/mL]>
0.25

$$$$
>  <Structure Notation>
COc1ccc2ccc(=O)n(CCN[C@H]3CC[C@H]4[C@H](C3)OC(=O)N4c3ccc4c(n3)NC(=O)CO4)c2n1

>  <Target Or System>
Escherichia coli

>  <MIC [µg/mL]>
0.06

$$$$
>  <Structure Notation>
O=c1ccc2ncc(=O)n3c2n1C[C@H]3CN1CCC(NCc2cc3c(cn2)OCCC3)CC1

>  <Target Or System>
Escherichia coli

>  <MIC [µg/mL]>
0.03

$$$$

Summary: COc1ccc2ccc(=O)n(CCN[C@H]3CC[C@H]4[C@H](C3)OC(=O)N4c3ccc4c(n3)NC(=O)CS4)c2n1 , Escherichia coli, MIC = 0.06

* * *

Consider the following molecules; for each one, report its IC50 at 24 h.
Experiment: Cytotoxicity against human HepG2 cells assessed as reduction in cell viability for 24 hrs by Celltiter-Glo assay
Type: toxicity, cell-based

For the 7 molecules below, give their IC50 at 24 h values.
1. O=c1ccc2ncc(=O)n3c2n1C[C@H]3CN1CCC(NCc2cc3c(cn2)OCCC3)CC1
2. N#Cc1ccc2ccc(=O)n(CCN[C@H]3CC[C@H]4[C@H](C3)OC(=O)N4c3ccc4c(n3)NC(=O)CO4)c2c1
3. COc1ccc2ccc(=O)n(CCN[C@@H]3CC[C@@H]4[C@@H](C3)OC(=O)N4c3ccc4c(n3)NC(=O)CO4)c2n1
4. O=C(O)c1cn(C2CC2)c2cc(N3CCNCC3)c(F)cc2c1=O
5. N#Cc1ccc2ccc(=O)n(CCCN[C@H]3CC[C@H]4[C@H](C3)OC(=O)N4c3ccc4c(n3)NC(=O)CO4)c2c1
6. COc1cnc2ccc(=O)n(CCN[C@H]3CC[C@H]4[C@H](C3)OC(=O)N4c3ccc4c(n3)NC(=O)CO4)c2c1
7. O=C1COc2ccc(N3C(=O)O[C@H]4C[C@@H](NCCn5c(=O)cnc6ccc(F)cc65)CC[C@@H]43)nc2N1

1: > 128 µg/mL; 2: > 128 µg/mL; 3: 64 µg/mL; 4: > 128 µg/mL; 5: 55 µg/mL; 6: > 128 µg/mL; 7: > 64 µg/mL

For the 2 molecules below, give their IC50 at 24 h values.
1. N#Cc1cnc2ccc(=O)n(CCN[C@H]3CC[C@H]4[C@H](C3)OC(=O)N4c3ccc4c(n3)NC(=O)CS4)c2c1
2. COc1ccc2ccc(=O)n(CCCN[C@H]3CC[C@H]4[C@H](C3)OC(=O)N4c3ccc4c(n3)NC(=O)CO4)c2n1

["> 128 µg/mL", "40 µg/mL"]

For the 5 molecules below, give their IC50 at 24 h values.
1. N#Cc1cnc2ccc(=O)n(CCN[C@H]3CC[C@H]4[C@H](C3)OC(=O)N4c3ccc4c(n3)NC(=O)CO4)c2c1
2. COc1ccc2ccc(=O)n(CCN[C@H]3CC[C@H]4[C@H](C3)OC(=O)N4c3ccc4c(n3)NC(=O)CO4)c2c1
3. COc1ccc2ccc(=O)n(CCN[C@H]3CC[C@H]4[C@H](C3)OC(=O)N4c3ccc4c(n3)NC(=O)CO4)c2n1
4. COc1ccc2ccc(=O)n(CCN[C@H]3CC[C@H]4[C@@H](C3)OC(=O)N4c3ccc4c(n3)NC(=O)CO4)c2n1
5. COc1ccc2ccc(=O)n(CCN[C@H]3CC[C@H]4[C@H](C3)OC(=O)N4c3ncc4c(n3)NC(=O)CO4)c2n1

1: > 128 µg/mL; 2: > 64 µg/mL; 3: > 64 µg/mL; 4: > 8 µg/mL; 5: > 128 µg/mL

meta.source: ChEMBL document CHEMBL5143607
